# PROCEDURE_SUMMARY: Plasma pharmacokinetics of quizartinib and AC886
# Format: in vivo, human
# SETTINGS: human, plasma, oral
READOUT_NAME: Tmax

CC(C)(C)c1cc(NC(=O)Nc2ccc(-c3cn4c(n3)sc3cc(OCCN5CCOCC5)ccc34)cc2)no1.Cl.Cl [quizartinib] has a reported Tmax of 2 to 3.21 h
